The origin of these recorded values is ChEMBL document CHEMBL5608163.

Test system: Escherichia coli
Assay: Antibacterial activity against Escherichia coli ATCC 25922 assessed as reduction in microbial growth incubated for 16 to 20 hrs by CLSI protocol based Muller Hinton broth assay
Format: functional
Conditions: time 16-20 hrs
Square brackets hold non-standard residues; d marks the D form. Peptide text beside a SMILES is read from it. 2Nal = N[C@@H](Cc1ccc2ccccc2c1)C(=O)O; hIle = CC[C@H](C)C[C@H](N)C(=O)O
QUANTITY NAME: MIC (µM)
Give your result in µM as a bare value.

Worked examples, 2 molecules total:
MOLECULE	UNIT	NUMBER
CC[C@H](C)[C@H](NC(=O)[C@H](Cc1ccccc1)NC(=O)[C@H](CCCCN)NC(=O)[C@H](CC(C)C)NC(=O)[C@H](CC(C)C)NC(=O)CN)C(=O)N[C@@H](CCCCN)C(=O)N[C@@H](CCCCN)C(=O)N[C@@H](CC(C)C)C(=O)N[C@@H](CC(C)C)C(N)=O (H-GLLKFIKKLL-NH2)	µM	9.5
CC[C@H](C)[C@H](NC(=O)[C@H](CCCNC(=N)N)NC(=O)[C@H](CCCCN)NC(=O)[C@H](Cc1ccc2ccccc2c1)NC(=O)[C@H](CC(C)C)NC(=O)CN)C(=O)N[C@@H](CCCCN)C(=O)N[C@H](C(=O)N[C@@H](CC(C)C)C(=O)N[C@@H](CC(C)C)C(N)=O)[C@@H](C)O (H-GL[2Nal]KRIKTLL-NH2)	µM	28.4

Then this molecule:
Query: Please look up its MIC: CC[C@H](C)C[C@H](NC(=O)[C@H](CCCNC(=N)N)NC(=O)[C@H](CCCCN)NC(=O)[C@H](CC(C)C)NC(=O)[C@H](CC(C)C)NC(=O)CN)C(=O)N[C@@H](CCCCN)C(=O)N[C@H](C(=O)N[C@@H](Cc1ccc2ccccc2c1)C(=O)N[C@@H](CC(C)C)C(N)=O)[C@@H](C)O (H-GLLKR[hIle]KT[2Nal]L-NH2)
Reply: 15.8
